Every entry's value here was drawn from patent US20230192831A1.

biological target: recombinant human GREM1 (hGREM1-His; C-terminal 10His tagged, R&D, #5190-GR) (human) (UniProt O60565); experiment: BLI Octet, captured mAb, 100 nM GREM1
Sequence (O60565 other isoform, or with tags, fused parts or gaps limits assumed, form in doubt): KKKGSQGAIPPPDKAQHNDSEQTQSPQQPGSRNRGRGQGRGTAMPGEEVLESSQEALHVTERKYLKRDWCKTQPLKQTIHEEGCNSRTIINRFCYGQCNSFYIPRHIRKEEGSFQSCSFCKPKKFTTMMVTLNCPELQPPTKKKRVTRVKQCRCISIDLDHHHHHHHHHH
Binding Signal with 30 sec Association (nm) by entry:
Write it as a number; the unit nm goes unstated.

Ask: Using the record for H4H6250P (antibody, human IgG4, V domains shown) VH: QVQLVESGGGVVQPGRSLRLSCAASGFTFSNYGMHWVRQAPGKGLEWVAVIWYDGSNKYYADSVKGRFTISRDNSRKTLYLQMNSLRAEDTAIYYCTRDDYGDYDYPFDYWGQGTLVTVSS VL: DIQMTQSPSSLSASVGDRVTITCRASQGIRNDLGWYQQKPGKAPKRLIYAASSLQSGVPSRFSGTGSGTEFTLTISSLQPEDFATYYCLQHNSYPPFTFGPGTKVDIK , report its Binding Signal with 30 sec Association (nm).
Result: 0.2

Ask: Query H4H6240P (antibody, human IgG4, V domains shown) VH: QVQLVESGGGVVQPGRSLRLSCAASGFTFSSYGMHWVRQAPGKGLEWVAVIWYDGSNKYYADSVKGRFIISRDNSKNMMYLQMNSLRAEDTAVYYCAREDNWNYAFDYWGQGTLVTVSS VL: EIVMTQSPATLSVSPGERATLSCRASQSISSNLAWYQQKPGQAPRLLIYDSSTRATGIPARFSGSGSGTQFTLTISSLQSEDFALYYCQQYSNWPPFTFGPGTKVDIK next
Result: 0.23

Ask: Query H4H6245P (antibody, human IgG4, V domains shown) VH: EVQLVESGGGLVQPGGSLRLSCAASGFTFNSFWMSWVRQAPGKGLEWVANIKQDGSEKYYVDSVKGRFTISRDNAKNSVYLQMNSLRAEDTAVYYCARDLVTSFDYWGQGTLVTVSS VL: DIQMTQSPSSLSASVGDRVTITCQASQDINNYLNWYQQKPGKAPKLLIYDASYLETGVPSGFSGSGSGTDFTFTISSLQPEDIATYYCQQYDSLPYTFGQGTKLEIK next
Result: 0.23

Ask: Query H4H2783N2 (antibody, human IgG4, V domains shown) VH: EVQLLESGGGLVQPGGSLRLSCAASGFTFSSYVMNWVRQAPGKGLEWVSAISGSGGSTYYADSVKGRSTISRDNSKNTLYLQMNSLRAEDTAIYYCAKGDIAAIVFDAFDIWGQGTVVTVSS VL: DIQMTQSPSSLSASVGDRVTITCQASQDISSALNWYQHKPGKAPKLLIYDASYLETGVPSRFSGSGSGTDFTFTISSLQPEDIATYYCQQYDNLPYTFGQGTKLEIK next
Result: 0.29

Ask: Query H4H6246P (antibody, human IgG4, V domains shown) VH: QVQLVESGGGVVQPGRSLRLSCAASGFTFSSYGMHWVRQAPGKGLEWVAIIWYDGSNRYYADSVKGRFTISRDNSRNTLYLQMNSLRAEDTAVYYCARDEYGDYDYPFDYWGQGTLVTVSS VL: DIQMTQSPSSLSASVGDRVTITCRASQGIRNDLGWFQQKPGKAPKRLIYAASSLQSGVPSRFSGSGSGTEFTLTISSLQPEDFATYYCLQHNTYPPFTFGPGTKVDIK next
Result: 0.19
